system: glucocorticoid receptor (Homo sapiens)
Construct: expressed in transfected cells
Sequence (P04150 524-758 limits assumed): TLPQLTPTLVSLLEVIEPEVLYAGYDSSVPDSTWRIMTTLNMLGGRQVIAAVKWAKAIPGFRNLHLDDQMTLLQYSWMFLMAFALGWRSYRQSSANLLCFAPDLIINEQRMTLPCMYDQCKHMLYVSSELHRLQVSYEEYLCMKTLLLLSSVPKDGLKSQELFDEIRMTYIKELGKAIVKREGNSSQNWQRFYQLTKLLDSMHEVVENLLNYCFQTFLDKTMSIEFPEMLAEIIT
measurementNotes: Agonistic mode of action on the glucocorticoid receptor (CHO-Gal4/GR luciferase reporter cell line)
Format: cell-based
measurementParameters: range class observed in the agonistic assay or the antagonistic assay (CHO-Gal4/GR reporter cells); table does not say which mode applies per example
What IC50 or EC50 (agonist or antagonist mode not specified) was measured for each of the following?

Param item = Cc1c(-c2cc(F)cc3c2ccn3S(C)(=O)=O)c(OC(F)F)cc2c1-n1c(C)nnc1C(C)(C)N2 ; retrieve measured IC50 or EC50 (agonist or antagonist mode not specified).
0.1 to 1 µM

Param item = Cc1nnc2n1-c1c(cc(F)c(-c3cc(F)cc4[nH]c(C#N)cc34)c1F)NC2(C)C ; retrieve measured IC50 or EC50 (agonist or antagonist mode not specified).
1 to 15 µM

Param item = COc1c(-c2cc(F)cc3c2ccn3CCO)c(F)cc2c1-n1c(C)nnc1C(C)(C)N2 ; retrieve measured IC50 or EC50 (agonist or antagonist mode not specified).
1 to 15 µM

Param item = Cc1nnc2n1-c1c(cc(F)c(-c3cccc4c3ccn4CC(F)F)c1F)NC2(C)C ; retrieve measured IC50 or EC50 (agonist or antagonist mode not specified).
0.1 to 1 µM

Param item = CCS(=O)(=O)n1ccc2c(-c3c(F)cc4c(c3C(F)F)-n3c(C)nnc3C(C)(C)N4)cccc21 ; retrieve measured IC50 or EC50 (agonist or antagonist mode not specified).
< 0.1 µM

Param item = Cc1nnc2n1-c1c(ccc(-c3cc(F)cc4c3ccn4S(C)(=O)=O)c1C(F)F)NC2(C)C ; retrieve measured IC50 or EC50 (agonist or antagonist mode not specified).
0.1 to 1 µM

Param item = CC#CCc1nnc2n1-c1c(cc(F)c(-c3cccc4c(C)c[nH]c34)c1F)NC2(C)C ; retrieve measured IC50 or EC50 (agonist or antagonist mode not specified).
< 0.1 µM

Param item = Cc1nnc2n1-c1c(cc(F)c(-c3cccc4c3ccn4S(=O)(=O)C3CC3)c1C(F)F)NC2(C)C ; retrieve measured IC50 or EC50 (agonist or antagonist mode not specified).
0.1 to 1 µM

Param item = Cc1nnc2n1-c1c(cc(F)c(-c3cccc4c3ccn4S(=O)(=O)C(C)C)c1C(F)F)NC2(C)C ; retrieve measured IC50 or EC50 (agonist or antagonist mode not specified).
1 to 15 µM

Param item = COCCn1ccc2c(-c3c(OC(F)F)cc4c(c3C)-n3c(C)nnc3C(C)(C)N4)cccc21 ; retrieve measured IC50 or EC50 (agonist or antagonist mode not specified).
1 to 15 µM

Param item = CCS(=O)(=O)n1ccc2c(-c3c(OC)cc4c(c3C(F)(F)F)-n3c(C)nnc3C(C)(C)N4)cccc21 ; retrieve measured IC50 or EC50 (agonist or antagonist mode not specified).
0.1 to 1 µM

Param item = CCc1c(-c2cc(F)cc3c2cnn3S(C)(=O)=O)c(F)cc2c1-n1c(C)nnc1C(C)(C)N2 ; retrieve measured IC50 or EC50 (agonist or antagonist mode not specified).
< 0.1 µM

Param item = Cc1c(-c2cccc3c(C)n[nH]c23)c(Cl)cc2c1-n1c(C)nnc1C(C)(C)N2 ; retrieve measured IC50 or EC50 (agonist or antagonist mode not specified).
0.1 to 1 µM

Param item = Cc1cc2c(c(C)c1-c1cccc3c1ccn3CC(F)F)-n1c(C)nnc1C(C)(C)N2 ; retrieve measured IC50 or EC50 (agonist or antagonist mode not specified).
0.1 to 1 µM

Param item = CC#Cc1c[nH]c2c(-c3c(F)cc4c(c3C)-n3c(C(C)O)nnc3C(C)(C)N4)cc(F)cc12 (stereo not shown) ; retrieve measured IC50 or EC50 (agonist or antagonist mode not specified).
1 to 15 µM

Param item = CC#Cc1c[nH]c2c(-c3c(F)cc4c(c3C)-n3c(C)nnc3C(C)(C)N4)cccc12 ; retrieve measured IC50 or EC50 (agonist or antagonist mode not specified).
< 0.1 µM

Param item = CC#Cc1c[nH]c2c(-c3c(F)cc4c(c3F)-n3c(CC)nnc3C(C)(C)N4)cccc12 ; retrieve measured IC50 or EC50 (agonist or antagonist mode not specified).
0.1 to 1 µM

Param item = Cc1nnc2n1-c1c(cc(F)c(-c3cc(F)cc4c3cnn4CC(F)F)c1C(F)F)NC2(C)C ; retrieve measured IC50 or EC50 (agonist or antagonist mode not specified).
< 0.1 µM

Param item = COc1cc2c(c(F)c1-c1cccc3c(C)c[nH]c13)-n1c(C)nnc1C(C)(C)N2 ; retrieve measured IC50 or EC50 (agonist or antagonist mode not specified).
0.1 to 1 µM

Param item = Cc1nnc2n1-c1c(cc(C(F)F)c(-c3cccc4[nH]ccc34)c1F)NC2(C)C ; retrieve measured IC50 or EC50 (agonist or antagonist mode not specified).
1 to 15 µM

Param item = COc1c(-c2cccc3c2ccn3S(C)(=O)=O)c(F)cc2c1-n1c(C)nnc1C(C)(C)N2 ; retrieve measured IC50 or EC50 (agonist or antagonist mode not specified).
0.1 to 1 µM

Param item = Cc1c(-c2cccc3c2ccn3CC(F)F)c(F)cc2c1-n1c(C)nnc1C(C)(C)N2 ; retrieve measured IC50 or EC50 (agonist or antagonist mode not specified).
< 0.1 µM

Param item = COc1cc2c(c(C(F)(F)F)c1-c1cc(F)cc3c(C4CC4)c[nH]c13)-n1c(C)nnc1C(C)(C)N2 ; retrieve measured IC50 or EC50 (agonist or antagonist mode not specified).
< 0.1 µM

Param item = COCC(=O)n1ccc2c(-c3c(F)cc4c(c3F)-n3c(C)nnc3C(C)(C)N4)cccc21 ; retrieve measured IC50 or EC50 (agonist or antagonist mode not specified).
< 0.1 µM

Param item = Cc1c(-c2cccc3[nH]ncc23)c(F)cc2c1-n1c(C)nnc1C(C)(C)N2 ; retrieve measured IC50 or EC50 (agonist or antagonist mode not specified).
0.1 to 1 µM

Param item = Cc1nnc2n1-c1c(cc(F)c(-c3cccc4c3cnn4S(C)(=O)=O)c1C(F)(F)F)NC2(C)C ; retrieve measured IC50 or EC50 (agonist or antagonist mode not specified).
0.1 to 1 µM

Param item = Cc1c(-c2cccc3c2cnn3S(C)(=O)=O)ccc2c1-n1c(C)nnc1C(C)(C)N2 ; retrieve measured IC50 or EC50 (agonist or antagonist mode not specified).
0.1 to 1 µM

Param item = COCCn1c(C(F)(F)F)cc2c(-c3c(F)cc4c(c3F)-n3c(C)nnc3C(C)(C)N4)cccc21 ; retrieve measured IC50 or EC50 (agonist or antagonist mode not specified).
1 to 15 µM

Param item = CCc1c(-c2cc(F)cc3c2cnn3CCO)c(F)cc2c1-n1c(C)nnc1C(C)(C)N2 ; retrieve measured IC50 or EC50 (agonist or antagonist mode not specified).
0.1 to 1 µM

Param item = Cc1nnc2n1-c1c(cc(F)c(-c3cccc4c3ccn4CC(=O)N(C)C)c1F)NC2(C)C ; retrieve measured IC50 or EC50 (agonist or antagonist mode not specified).
1 to 15 µM

Param item = Cc1c(-c2cccc3[nH]ccc23)c(F)cc2c1-n1c(C)nnc1C(C)(C)N2 ; retrieve measured IC50 or EC50 (agonist or antagonist mode not specified).
< 0.1 µM
